The following molecules are listed with their measured TGI values.
test system: 786-0 renal; assay: NCI tumour cell line growth inhibition, 48 h
Enter your answer as a number in µM; do not include the unit.

Below, 2 molecules whose answers are already recorded.
Smiles Structure	Recorded Result
O=C(N/N=C/c1coc2ccc(Cl)cc2c1=O)c1cc(O)c(O)c(O)c1	66
CCCCCCCCCCCCNCCCc1ccccc1	3.33

What value of TGI has been reported for the following molecule? "COc1ccc(-c2c(C#N)c(N)nc(Sc3ccccc3N)c2C#N)cc1"
32.3

Next record, please: "CN(C)Cc1cc(C(=O)/C=C/c2ccc(Cl)cc2Cl)cc(CN(C)C)c1O"
13.5

Next record, please: "O=C1c2c[n+](Cc3ccccc3)ccc2-c2nc3ccccc3c3ccnc1c23"
2.76

Next record, please: "O=C1/C(=C/c2ccccc2)CN(C(=O)/C=C/c2ccccc2)C/C1=C\c1ccccc1"
8.27

====

tested on: 786-0 renal; test: NCI tumour cell line growth inhibition, 48 h
The following molecules are listed with their measured TGI values.

Below, 5 molecules whose answers are already recorded.
Molecule	Recorded Result
CN(C)/C=N/S(=O)(=O)c1nn2c(C=O)c(-c3ccc(-c4ccccc4)cc3)nc2s1	2.99 µM
CN1CC[C@@]2(c3cccc(O)c3)CC(=O)/C(=C/c3ccc(Cl)c(Cl)c3)[C@H]1C2	3.07 µM
CCCCCCCCCCCCNC(=S)OCCCC	> 100 µM
C[C@]12CC/C(=N\OCCN3CCCC3)C=C1CCC1C2CC[C@@]2(C)C1CC[C@]2(C)O (stereo partly drawn)	14.8 µM
NNC(=S)N/N=C(\c1nc2ccc(Cl)cc2[nH]c1=O)C(O)c1cccc([N+](=O)[O-])c1 (stereo not drawn)	> 62.5 µM

Here is another molecule to look at.
Lab note: need TGI for "O=C1OC(=O)c2c1cc1cc3c(cc1c2-c1ccc2c(c1)OCO2)OCO3" on 786-0 renal, anyone have it?
48.1 µM

====

tested on: DU-145 prostate; assay: NCI tumour cell line growth inhibition, 48 h
The following compounds are listed with their measured TGI values.

Below, 10 compounds whose answers are already recorded.
Compound	Recorded Result
COc1ccccc1OC/C(N=Cc1cccnc1)=N/NC(=O)c1ccncc1	> 100 µM
Cc1ccc(C(=O)c2[nH]c(NCc3ccccc3)c(C(=S)Nc3ccccc3)c2N)cc1	27 µM
O=c1oc2cc(O)ccc2cc1-c1nc2ccccc2o1	> 100 µM
O=C(N/N=C\c1ccc([N+](=O)[O-])cc1)Nc1ccc2ccccc2c1	> 100 µM
COC(=O)C1=CCC[C@H]2[C@@]1(COC(C)=O)CC[C@@H](C)[C@]2(C)CC(=O)c1ccoc1	> 50 µM
O=C1NCC2(CCN(CC3COc4ccccc4O3)CC2)N1c1ccccc1 (stereo not drawn)	> 100 µM
CC12CC(Br)(Br)C(=O)C3C1CCCC32	25.1 µM
COc1ccc(C(=O)c2no[n+]([O-])c2C(=O)c2ccc(OC)cc2)cc1	27.6 µM
Cc1ccc(S(=O)(=O)NC(=O)Nc2ncn[nH]2)cc1	> 100 µM
O=C(N/N=C/c1coc2ccc(Cl)cc2c1=O)c1cc(O)c(O)c(O)c1	> 100 µM

What value of TGI has been reported for the following compound? Nc1ncnc2c1ncn2C1OC(F)(COS(N)(=O)=O)C(O)C1O (stereo not drawn)
> 100 µM

Next record, please: CCOC(=O)CCC(NC(=O)c1ccc(Oc2nc3cc(N)cc(N)c3nc2-c2ccccc2)cc1)C(=O)OCC (stereo not drawn)
> 100 µM

Next record, please: "CCC(=O)NC(NNS(=O)(=O)c1ccc(C)cc1)(C(F)(F)F)C(F)(F)F"
> 100 µM

Next record, please: "c1ccc(Nc2nnc(-c3ccccc3Nc3ccccc3-c3nnc(Nc4ccccc4)s3)s2)cc1"
> 100 µM

Next record, please: "COc1cccc(C2=C(c3cn(C)c4c(C)cccc34)C(=O)NC2=O)c1"
> 25 µM

Next record, please: CC(=O)OC1CCC2(C)C(=CCC3C2CCC2(C)C3CC3OC4(CCC(C)CN4)C(C)C32)C1 (stereo not drawn)
> 100 µM

Next record, please: "O=C1CC[C@@H]2[C@H]3CCC(=O)c4c3c(c3cccc(O)c3c4O)O[C@@]23C(=O)c2cccc(O)c2C(O)=C13"
> 100 µM

Next record, please: "Cc1ccc2c(n1)C(=O)c1cc(C)c(C)cc1C2=O"
> 100 µM

====

test system: HCT-116 colon; assay: NCI tumour cell line growth inhibition, 48 h
Measured Endpoint: TGI

Below, 5 compounds whose answers are already recorded.
Compound	System	TGI
CC(=O)CC(=O)Nc1ccc(OS(N)(=O)=O)cc1	HCT-116 colon	> 100 µM
C#CCNC(CCCN=C(N)N)C(=O)O (configuration not stated)	HCT-116 colon	> 100 µM
COc1ccccc1OC/C(N=Cc1cccnc1)=N/NC(=O)c1ccncc1	HCT-116 colon	> 100 µM
NC(=O)c1c(-c2ccccc2)c(-c2ccccc2)cc2c(=O)c3ccccc3[nH]c12	HCT-116 colon	35.9 µM
COc1cccc(C2c3cc4c(cc3OC(N3CCCC3)C2c2ccccc2)OCO4)c1O (configuration not stated)	HCT-116 colon	17.7 µM

What value of TGI has been reported for the following compound? "COc1cccc(C2=C(c3cn(C)c4c(C)cccc34)C(=O)NC2=O)c1"
> 25 µM

Next record, please: CC(Oc1ccc(Cl)cc1Cl)C(=O)NN1C(=O)CC(=O)NC1=S (configuration not stated)
> 100 µM

====

tested on: SK-MEL-2 melanoma; assay: NCI tumour cell line growth inhibition, 48 h; in the data active means GI50 below about 0.43 µM; inactive means the rest
Thanks in advance; please answer with one of these: active, inactive

Consider the following illustrative entries.
Molecule	Assigned Class
COc1ccc(/C(=N/O)c2cc(F)c(F)c(OC)c2F)cc1O	active
O=C(NCCc1nccs1)c1cnc2c(S)cccc2c1	inactive
CC(C)C[C@H](NC(=O)[C@@H](N)Cc1cccc2ccccc12)B(O)O	inactive

// switching to the query molecule
So what was the verdict on CC(=O)OC1C(C)OC(Oc2c(-c3ccc(O)cc3)oc3cc(O)cc(O)c3c2=O)C(O)C1OC(C)=O (centres undefined) in this test?
inactive

====

The following compounds are listed with their measured GI50 values.
test system: NCI/ADR-RES ovarian; assay: NCI tumour cell line growth inhibition, 48 h

Lab note: need GI50 for CCOC(=O)CCC(NC(=O)c1ccc(Oc2nc3cc(N)cc(N)c3nc2-c2ccccc2)cc1)C(=O)OCC (configuration not stated) on NCI/ADR-RES ovarian, anyone have it?
27.5 µM

Next record, please: CC(=O)OC1C(C)OC(Oc2c(-c3ccc(O)cc3)oc3cc(O)cc(O)c3c2=O)C(O)C1OC(C)=O (configuration not stated)
> 100 µM

====

system: SN12C renal; test: NCI tumour cell line growth inhibition, 48 h
Measured Endpoint: TGI

Compound	Measured Endpoint	Recorded Result
COC(=O)C(C(=O)C(=O)Nc1nc2ccc(OC)cc2s1)c1cnc2ccccc2n1 (stereo unspecified)	TGI	> 100 µM
O=C1Nc2ccccc2C1(O)Cc1ccccn1 (stereo unspecified)	TGI	> 100 µM
O=[N+]([O-])c1cc2c(ccc3ccccc32)o1	TGI	22.7 µM
CN(C)Cc1nsc(N(C)C)n1	TGI	> 100 µM

What value of TGI has been reported for the following compound? "O=C1CC[C@@H]2[C@H]3CCC(=O)c4c3c(c3cccc(O)c3c4O)O[C@@]23C(=O)c2cccc(O)c2C(O)=C13"
> 100 µM

Next record, please: "CC[n+]1c(/C=C/c2cc(C(=O)OC)n3c2sc2ccccc23)sc2ccccc21"
49.3 µM

Next record, please: "c1ccc(CSCCC(SCc2ccccc2)SCc2ccccc2)cc1"
> 10 µM

Next record, please: CCc1cn(C2CC(CO)C(CO)S2)c(=O)[nH]c1=O (stereo unspecified)
> 100 µM

Next record, please: O=C(OCc1ccccc1)N1N=NC2C3CC(OCc4ccccc4)(OCc4ccccc4)C(O3)C21 (stereo unspecified)
> 100 µM

Next record, please: "COc1ccc(/C(=N/O)c2cc(F)c(F)c(OC)c2F)cc1O"
> 100 µM

Next record, please: "O=C1CSc2ccnc(=O)n21"
> 100 µM

====

system: MDA-MB-231 breast; assay: NCI tumour cell line growth inhibition, 48 h; in the data active = GI50 below about 0.43 µM; inactive = the rest
Thanks in advance; please answer with one of these: active, inactive

Consider the following illustrative entries.
Compound	Assigned Class
CC(=O)OC1C(C)OC(Oc2c(-c3ccc(O)cc3)oc3cc(O)cc(O)c3c2=O)C(O)C1OC(C)=O (configuration not stated)	inactive
COc1cc2c(cc1OCCCN1CCN(CCCOc3cc4c(cc3OC)C(=O)N3C[C@H](F)C[C@H]3C=N4)CC1)N=C[C@@H]1C[C@@H](F)CN1C2=O	active
CCOC(=O)c1nc2sc(Cl)cn2c1/C=N/N=C(N)N	inactive
COc1ccc(C(=O)c2no[n+]([O-])c2C(=O)c2ccc(OC)cc2)cc1	inactive
COc1cc(/C=C/C(=O)c2cccc(-n3cc(-c4ccccc4)[nH]c3=O)c2)ccc1O	inactive

So what was the verdict on Nc1ccccc1SC(CC(=O)c1ccccc1)c1c(Cl)cccc1Cl (configuration not stated) in this test?
inactive

Next record, please: "Cc1cc(N)c2cc(NC(=O)/C=C\c3ccccc3Cl)ccc2n1"
inactive

Origin of values: PubChem BioAssay (NCI)
